Reference for the values: patent US20210253718A1

- targetOrSystem: T1, FZD6 CRD (Homo sapiens, UniProt O60353)
- T1 construct: S20-P146; GPI anchor signal (C); expressed in transfected cells; host or cells: CHO cells, lentiviral pLenti-puro
- T1 sequence (O60353 20-146): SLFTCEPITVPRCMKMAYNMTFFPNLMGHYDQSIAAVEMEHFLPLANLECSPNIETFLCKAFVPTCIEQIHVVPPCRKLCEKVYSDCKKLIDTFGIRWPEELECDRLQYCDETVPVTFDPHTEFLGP
- assay: Immunofluorescence of anti-FZD5 Fab binding to CHO cells overexpressing Frizzled CRD
- Set-up: key: −: no binding; +: very weak binder; ++: weak binder; +++: good binder; ++++: very good binder
measurementKind: Immunofluorescence binding, Frizzled CRD overexpressed on CHO cells: FZD6

molecule	measValue
Fab-2927: anti-FZD5 Fab with antibody variable region Fv-2927; CDR SEQ ID NOs: 35, 36, 66, 104, 142, 174 (antibody, V domains shown) VH: EVQLVESGGGLVQPGGSLRLSCAASGFNIYYSSMHWVRQAPGKGLEWVASIYPSYGYTSYADSVKGRFTISADTSKNTAYLQMNSLRAEDTAVYYCARYGYYGFDYWGQGTLVTVSS VL: DIQMTQSPSSLSASVGDRVTITCRASQSVSSAVAWYQQKPGKAPKLLIYSASSLYSGVPSRFSGSRSGTDFTLTISSLQPEDFATYYCQQWGSHGYLITFGQGTKVEIK	−
